System: SF-268 CNS
assay_comment: NCI-60 one-dose screen, 48 h
applied_conditions: 10 µM unless noted
Compounds without any hit were thinned out: in the full panel of roughly 83,000, 20% have a hit. The source made the active and inactive calls. The calls were made as follows: active = growth percent below 10; inactive = the rest.
Labels: True = active, False = inactive

[[record]]
compound = "C=C(C)[C@@H]1CC[C@]2(COCCCNCCCN)CC[C@]3(C)[C@H](CC[C@@H]4[C@@]5(C)CC[C@H](OCCCN)C(C)(C)[C@@H]5CC[C@]43C)[C@@H]12"
category_label = "True"

[[record]]
compound = "Cc1cc2nc(C(Cl)Cl)nc(-c3ccccc3)n2n1"
category_label = "False"

[[record]]
compound = "Cc1c(CC(=O)Nc2ccccc2)nnn1-c1ccccc1"
category_label = "False"

[[record]]
compound = "CN1CCN(c2ccc(Nc3ncc4[nH]c(=O)n(Cc5ccccc5N)c4n3)cc2)CC1"
category_label = "False"

[[record]]
compound = "Cn1cc(-c2csc(-c3cn(C)c4ccc(F)cc34)n2)c2cnccc21"
category_label = "True"

[[record]]
compound = "COc1cc(/C=C/C(=O)c2ccc(-n3cc(CN4CCN(c5cc6c(cc5F)c(=O)c(C(=O)O)cn6C5CC5)CC4)nn3)cc2)cc(OC)c1OC"
category_label = "False"

[[record]]
compound = "COc1ccc(S(=O)(=O)N(C)c2oc(-c3ccc(Cl)cc3)nc2C#N)cc1"
category_label = "False"

[[record]]
compound = "N#Cc1nn(-c2ccccn2)c(N)c1C#N"
category_label = "False"

[[record]]
compound = "O=c1[nH]c(CN2CCN(c3ccccc3)CC2)nc2c(Br)cc(Br)cc12"
category_label = "False"

[[record]]
compound = "Cc1ccc2c(n1)C[C@H](C(C)(C)O)CC[C@H]2C"
category_label = "False"

[[record]]
compound = "COCCNC(=O)Cc1cc(-c2ccc(Cl)cc2)n(-c2ccccc2)c1C"
category_label = "False"

[[record]]
compound = "COc1ccc(N2C(=O)/C(=C/C(Cl)=C/c3ccc([N+](=O)[O-])cc3)SC2=S)cc1"
category_label = "False"

[[record]]
compound = "CNC(=O)c1cc(Oc2ccc3nc(NC(=O)Nc4ccc(F)cc4F)sc3c2)ccn1"
category_label = "False"

[[record]]
compound = "CNC1=C(Br)C(=O)c2c(C(=O)OC)c(C)nc(C)c2C1=O"
category_label = "False"

[[record]]
compound = "CCCNNC(=O)c1ccc(CNC(=O)/C=C/c2ccccc2)cc1"
category_label = "False"

[[record]]
compound = "Fc1ccc(/C=C/c2cc(/C=C/c3ccc(F)cc3)n(-c3cc(F)cc(F)c3)n2)cc1"
category_label = "False"

[[record]]
compound = "O=[N+]([O-])c1ccc(Oc2cccc3c(Oc4ccc([N+](=O)[O-])cc4[N+](=O)[O-])cccc23)c([N+](=O)[O-])c1"
category_label = "False"

[[record]]
compound = "COc1cc(C(=O)n2nc(NCCCc3ccccc3)c3cc(N)ccc32)cc(OC)c1OC"
category_label = "False"

[[record]]
compound = "CCN(CC)CCCNc1cc(OC)cc2cccnc12"
category_label = "False"

[[record]]
compound = "COc1cc(-c2ccc(-c3ccc(C(=N)N)s3)s2)cc(OC)c1OC"
category_label = "False"

[[record]]
compound = "CC(Cc1cccc2ccccc12)C(N)=O (stereo unspecified)"
category_label = "False"


###

System: CAKI-1 renal
assay_comment: NCI-60 one-dose screen, 48 h (100 = growth as untreated, 0 = no growth, -100 = all killed)
applied_conditions: 10 µM unless noted
The panel holds about 83,000 compounds, 20% with a hit somewhere; the sample as a whole holds those more often.
assay_readout: growth (%)

[[record]]
molecule = "CC(=O)/C(Br)=C/c1ccc(Br)o1"
recorded_measurement = 26.1

[[record]]
molecule = "Clc1ccc2c(NCCCn3cnc4c(N5CCCC5)nc(Cl)nc43)ccnc2c1"
recorded_measurement = 90.8

[[record]]
molecule = "CN(C)c1ccc(/C=N/NC(=O)CSc2nc3sc4c(c3c(=O)n2-c2ccccc2)CCCCC4)cc1"
recorded_measurement = 8.87

[[record]]
molecule = "Cc1c(C)c2c(c(C)c1OC(=O)CCC(=O)[O-])CCC(C)(CCCCCCCCCCC[P+](c1ccccc1)(c1ccccc1)c1ccccc1)O2 (centres undefined)"
recorded_measurement = -28.3

[[record]]
molecule = "Cc1cc2nc(C(Cl)Cl)nc(-c3ccccc3)n2n1"
recorded_measurement = 35

[[record]]
molecule = "O=C(CSc1nnc(-c2cc(-c3ccc(Cl)cc3)nc3ccccc23)n1-c1ccccc1)Nc1ccc(Cl)cc1"
recorded_measurement = 89.5

[[record]]
molecule = "O=C(/C=C/c1ccc(Cl)cc1)c1ccc(-n2cc(CN3CCN(c4cc5c(cc4F)c(=O)c(C(=O)O)cn5C4CC4)CC3)nn2)cc1"
recorded_measurement = 75.5

[[record]]
molecule = "COc1ccc(-n2c(=O)n(-c3ccc(-c4nc5ccc(F)cc5s4)cc3)c(=O)c3cccnc32)cc1"
recorded_measurement = 85.3

[[record]]
molecule = "CN(C)c1ccc(/C=C/C2=[N+](C)c3ccccc3C2(C)C)cc1"
recorded_measurement = 29.3


###

System: NCI-H322M lung
assay_comment: NCI-60 one-dose screen, 48 h
applied_conditions: 10 µM unless noted
Compounds without any hit were thinned out: in the full panel of roughly 83,000, 20% have a hit. Active and inactive are the calls of the source. The calls were made as follows: active = growth percent below 10; inactive = the rest.
Possible outcomes: active, inactive

[[record]]
molecule = "CCOC(=O)c1c(C)c2c(n1Cc1ccccc1)CSc1cc(C#N)c(=O)[nH]c1-2"
experimental_system = "NCI-H322M lung"
category_label = "inactive"

[[record]]
molecule = "COc1ccc(-c2csc(NC(=O)CSc3nc(C)cc(=O)[nH]3)n2)cc1"
experimental_system = "NCI-H322M lung"
category_label = "inactive"

[[record]]
molecule = "CCOC(=O)c1ccc2c(c1)c1c(C)c3cnccc3c(C)c1n2C"
experimental_system = "NCI-H322M lung"
category_label = "active"

[[record]]
molecule = "O=C(/C=C/C12c3ccccc3C(c3ccccc31)C1C(=O)NC(=O)C12)c1cccs1 (stereo not given)"
experimental_system = "NCI-H322M lung"
category_label = "inactive"

[[record]]
molecule = "Cc1nc2c(c(-c3ccccc3)n1)Cc1c(ccc3ccccc13)O2"
experimental_system = "NCI-H322M lung"
category_label = "inactive"

[[record]]
molecule = "COc1ccccc1NC(=O)n1c(=O)cc(C)c2ccc(O)cc21"
experimental_system = "NCI-H322M lung"
category_label = "inactive"

[[record]]
molecule = "NCCCCCNc1noc(Cc2c[nH]c3cc(Br)ccc23)n1"
experimental_system = "NCI-H322M lung"
category_label = "inactive"

[[record]]
molecule = "CC1(C)CC(=O)C2=C(C1)OC(C(=O)c1ccccc1)C2c1cccc(Oc2ccccc2)c1 (stereo not given)"
experimental_system = "NCI-H322M lung"
category_label = "inactive"

[[record]]
molecule = "CCN1C(=O)N(CC)C2C1NN=c1s/c(=C\\c3ccccc3)c(=O)n12 (stereo not given)"
experimental_system = "NCI-H322M lung"
category_label = "inactive"

[[record]]
molecule = "Brc1ccc(-c2nn(-c3ccccc3)cc2-c2nn[nH]n2)s1"
experimental_system = "NCI-H322M lung"
category_label = "inactive"


###

Test system: SF-295 CNS
assay_comment: NCI-60 one-dose screen, 48 h
applied_conditions: 10 µM unless noted
Compounds without any hit were thinned out: in the full panel of roughly 83,000, 20% have a hit. Active and inactive are the calls of the source. Rule for the calls: active = growth percent below 10; inactive = the rest.
Possible outcomes: active, inactive

[[record]]
compound = "CCN(CC)CCCC(Nc1c2ccc(Cl)cc2nc2ccc(OC)cc12)c1ccncc1 (configuration not stated)"
category_label = "inactive"

[[record]]
compound = "N=C(N)c1ccc(-c2ccc(-c3ccccc3)s2)nc1"
category_label = "inactive"

[[record]]
compound = "COc1ccc2c(c1)c(-c1nc(-c3cn(C)c4ccncc34)cs1)cn2C"
category_label = "inactive"

[[record]]
compound = "CN1CCN(c2ccc(Nc3ncc4[nH]c(=O)n(Cc5ccccc5N)c4n3)cc2)CC1"
category_label = "inactive"

[[record]]
compound = "COc1ccc(S(=O)(=O)NC2c3ccccc3CC2O)cc1OC (configuration not stated)"
category_label = "inactive"

[[record]]
compound = "CCOC(=O)c1c(N)sc2cc(O)ccc12"
category_label = "inactive"

[[record]]
compound = "CC(=O)OCCOc1cc(Cl)c(Cl)cc1Cl"
category_label = "inactive"

[[record]]
compound = "O=c1[nH]c(CN2CCN(c3ccccc3)CC2)nc2c(Br)cc(Br)cc12"
category_label = "inactive"

[[record]]
compound = "CCCCCN(CCCCC)CC(O)c1c(Cl)ccc2ccccc12 (configuration not stated)"
category_label = "inactive"

[[record]]
compound = "CCN(CC)c1ccc(/C=N/NC(=O)c2ccccc2Nc2ccnc(C(F)(F)F)c2)c(O)c1"
category_label = "inactive"

[[record]]
compound = "CCOC(=O)c1ccc2c(c1)c1c(C)c3cnccc3c(C)c1n2C"
category_label = "active"

[[record]]
compound = "CN1CCN(CCCNC(=O)c2c3c(n4ccccc24)C(=O)c2ncccc2C3=O)CC1"
category_label = "inactive"

[[record]]
compound = "COC(=O)[C@H](C)NC(=O)[C@@H]1CCCN1C(=O)CNC(=O)[C@H](C)N"
category_label = "inactive"

[[record]]
compound = "CN1CCN(Cn2nc(-c3cc(Cl)cc(Cl)c3Cl)oc2=S)CC1"
category_label = "inactive"

[[record]]
compound = "CC(Cc1cccc2ccccc12)C(N)=O (configuration not stated)"
category_label = "inactive"

[[record]]
compound = "O=C1Nc2ccccc2/C1=C/c1cccn1CCCCCCn1c2ccccc2c(=O)c2ccccc21"
category_label = "inactive"

[[record]]
compound = "Cn1ccnc1C(=O)/C=C/c1ccc(C(=O)Nc2c(F)c(F)c(F)c(F)c2F)cc1"
category_label = "inactive"

[[record]]
compound = "CCOC(=O)c1c(Nc2nc3ccccc3s2)sc2c1CCC(=O)C2"
category_label = "inactive"

[[record]]
compound = "C=C1C(=O)O[C@H]2[C@H]1CC/C(COC(=O)NCc1ccc(Cn3c(=O)sn(CCCC)c3=O)cc1)=C\\CC[C@@]1(C)O[C@@H]21"
category_label = "inactive"

[[record]]
compound = "Cc1ccc(S(=O)(=O)N(CCC(=O)O)c2ccccc2)cc1"
category_label = "inactive"

[[record]]
compound = "O=C(Nc1ccccc1)Nc1ccccc1CNc1nc(Nc2ccc(OCCN3CCCC3)cc2)ncc1Cl"
category_label = "inactive"

[[record]]
compound = "O=C1/C(=C/c2ccccc2)COc2ccc(O)cc21"
category_label = "inactive"

